- Test system: U2OS
- method_summary: Multiplex assay against U2OS
- Format: toxicity, cell-based
- condition_description: human, 48 h, 10 µM, compound concentration 10 uM, replicate 2
Known Population Mitochondria Different-Phenotype (%) of a selection of molecules
The reply should be a number in %, with the unit left off.

Completed entries (count: 10):
- CN1C[C@H](C(=O)N[C@]2(C)O[C@@]3(O)[C@@H]4CCCN4C(=O)[C@H](Cc4ccccc4)N3C2=O)C[C@@H]2c3cccc4[nH]cc(c34)C[C@H]21.CS(=O)(=O)O [DIHYDROERGOTAMINE MESYLATE]: 1
- Cc1cc(-c2ccc3c(c2)CC[C@H]3N2CC3(CCN(C(=O)Cc4cn5cc(C)sc5n4)CC3)C2)ncn1 [PF-5190457]: 6
- C=CCN1C[C@H](C(=O)N(CCCN(C)C)C(=O)NCC)C[C@@H]2c3cccc4[nH]cc(c34)C[C@H]21 [CABERGOLINE]: 9
- S=C(NCCCc1c[nH]cn1)NCCCN(Cc1ccc(Cl)c(Cl)c1)c1ccc(Br)cn1: 42
- Cl.Cl.OCCOCCN1CCN(C(c2ccccc2)c2ccc(Cl)cc2)CC1 (configuration not stated) [HYDROXYZINE HYDROCHLORIDE]: 5
- O=C(NCCNCC(O)COc1ccc(O)cc1)N1CCOCC1.O=C(NCCNCC(O)COc1ccc(O)cc1)N1CCOCC1.O=C(O)/C=C/C(=O)O (configuration not stated) [XAMOTEROL FUMARATE]: 4
- CC(C)(C)c1ccc(CSc2cnn(C(C)(C)C)c(=O)c2Cl)cc1 [PYRIDABEN]: 6
- CN(C)C/C=C/C(=O)Nc1ccc(C(=O)N2CCCC(Nc3ncc(Cl)c(-c4c[nH]c5ccccc45)n3)C2)cc1 (configuration not stated): 19
- CCCCCCNC(=O)Nc1ccc(S(=O)(=O)Nc2ccc(CCNC[C@H](O)COc3ccc(O)cc3)cc2)cc1 [L-755507]: 3
- COc1cc(OC2CCN(C(C)=O)CC2)ccc1C(=O)N1CCC(N2C(=O)OCc3ccccc32)CC1: 6

GET /values?readout=Population Mitochondria Different-Phenotype (%)&item= COCCCN1CCC(NC(=O)c2cc(Cl)c(N)c3c2OCC3)CC1 [PRUCALOPRIDE]
3

GET /values?readout=Population Mitochondria Different-Phenotype (%)&item= OCCCNc1cc(-c2ccnc(Nc3cccc(Cl)c3)n2)ccn1
34

Provenance of the data: ChEMBL document CHEMBL5058577
